test: in vitro; details: human, Mutu I cells
readout.type: viability
# output: number + unit

-- ask Name the recorded viability for Nc1ncn([C@H]2C[C@H](O)[C@@H](CO)O2)c(=O)n1 .
-- reply 62%

----------
system: LMP1 expression in Kem I cells; test: microbe, parasite or virus in culture; assay type: cell-based, EBV; settings: human gammaherpesvirus 4, 48 h, read-out: Average LMP1 Fold Increase, Kem I cells, 2.5 uM, 48 hours, average of replicates 1 and 2
Structures can show the parent of a compound that is named as a salt.
readout.type: fold induction at 2.5 µM

-- ask Fill in: fold induction at 2.5 µM of CCN(CC)C(=O)c1ccc(C2=CC3(CCNCC3)Oc3cccc(O)c32)cc1 [ADL5859 HCl] is ___
-- reply 1.02

-- ask Follow-up item: CCNC(=O)[C@H]1O[C@@H](n2cnc3c(N)nc(NCCc4ccc(CCC(=O)O)cc4)nc32)[C@H](O)[C@@H]1O [CGS 21680 HCl]
-- reply 0.7

-- ask Same again, this time with COc1c(O)cc2c(c1O)[C@@H]1O[C@H](CO)[C@@H](O)[C@H](O)[C@H]1OC2=O
-- reply 0.86

-- ask Same question, CC1=C(/C=C/C(C)=C/C=C/C(C)=C\C(=O)O)C(C)(C)CCC1 this time
-- reply 1.76

-- ask Let us now turn to Nc1ccc(C(=O)O)c(O)c1 [Sodium 4-Aminosalicylate]
-- reply 0.36

-- ask Another molecule to check: CCOC(=O)c1cncn1[C@H](C)c1ccccc1 [Etomidate]
-- reply 0.5

-- ask // repeat for COc1ccc2c(c1)C(=O)N(CCc1ccc(S(=O)(=O)NC(=O)NC3CCCCC3)cc1)C(=O)C2(C)C and report
-- reply 0.77

-- ask // query: COc1ccc2cccc(CCNC(C)=O)c2c1
-- reply 0.43

-- ask Lookup Oc1c2ccccc2c2c3c(cccc13)N=N2
-- reply 0.6

-- ask How about this molecule: CN1CCN(c2nc(C3=C(c4c[nH]c5ccccc45)C(=O)NC3=O)c3ccccc3n2)CC1
-- reply 0.31

-- ask Query O=c1cc(-c2ccc(O)cc2)oc2cc(O)cc(O)c12 next
-- reply 0.58

-- ask Same question for CCc1nc(N)nc(N)c1-c1ccc(Cl)cc1 please.
-- reply 0.8

-- ask Also O=C(NC[C@H]1CN(c2ccc(N3CCOCC3=O)cc2)C(=O)O1)c1ccc(Cl)s1 , if possible.
-- reply 0.14

-- ask Another molecule: COc1ccc(-c2nc3ccc(C4=NNC(=O)CC4C)cc3[nH]2)cc1 (centres unmarked)
-- reply 0.87

-- ask Then this molecule: Cc1cc2c(cc1CC(=O)c1sccc1S(=O)(=O)Nc1onc(C)c1Cl)OCO2 [Sitaxentan sodium]
-- reply 0.25

-- ask Query CCOC(=O)[C@H](CCc1ccccc1)N[C@@H](C)C(=O)N1C(=O)N(C)C[C@H]1C(=O)O [Imidapril HCl] next
-- reply 0.66

-- ask Next: COc1cccc2c1C(=O)c1c(O)c3c(c(O)c1C2=O)C[C@@](O)(C(C)=O)C[C@@H]3O[C@H]1C[C@H](N)[C@H](O)[C@H](C)O1 [Daunorubicin HCl]
-- reply 242

----------
Answer each item with its documented fold induction at 2.5 µM.
test system: LMP1 expression in Kem I cells; experiment: microbe, parasite or virus in culture; assay type: cell-based, EBV; details: human gammaherpesvirus 4, 48 h, read-out: Replicate 1-LMP1 Fold Increase, Kem I cells, 2.5 uM, 48 hours, fold change in LMP1 transcript vs vehicle
Counter-ions that a name gives are not always drawn.
Please respond with just the number, no unit label.

-- ask Sample O=C(O)Cn1nnc(-c2cc(N3CCC(Oc4cc(F)ccc4Br)CC3)no2)n1 [MK-8245] — what was its fold induction at 2.5 µM?
-- reply 1.51

-- ask Same again, this time with O=C(NC[C@H]1CN(c2ccc(N3CCOCC3=O)cc2)C(=O)O1)c1ccc(Cl)s1 [Rivaroxaban]
-- reply 0.08

-- ask Now consider Cc1ccc(S(=O)(=O)NC(=O)NN2CC3CCCC3C2)cc1 (centres unmarked) [Gliclazide] and answer again.
-- reply 0.98

-- ask Follow-up entry: C[C@@H]1CN(CC(=O)Nc2ccc3c(c2)Cc2cccc(-c4cc(=O)cc(N5CCOCC5)o4)c2S3)C[C@H](C)O1 [KU-60019]
-- reply 0.49

-- ask Now give it for Cc1cc2c(cc1CC(=O)c1sccc1S(=O)(=O)Nc1onc(C)c1Cl)OCO2 [Sitaxentan sodium] too.
-- reply 0.16

-- ask # repeat for COC(=O)C1=C(C#N)NC(C)=C(C(=O)OC(C)C)C1c1cccc([N+](=O)[O-])c1 (centres unmarked) [Nilvadipine]
-- reply 0.96

-- ask And CN[C@H]1CC[C@@H](c2ccc(Cl)c(Cl)c2)c2ccccc21 [Sertraline HCl] ?
-- reply 0.81

-- ask Also need COc1ccc2c(c1)C(=O)N(CCc1ccc(S(=O)(=O)NC(=O)NC3CCCCC3)cc1)C(=O)C2(C)C [Gliquidone] , thanks.
-- reply 0.81

-- ask Input Nc1nc(CC(=O)Nc2ccc(CCNC[C@H](O)c3ccccc3)cc2)cs1 [Mirabegron]
-- reply 0.74

-- ask Would you kindly repeat that for O=C(Nc1cc(C(F)(F)F)cc(C(F)(F)F)c1)c1cc(Cl)ccc1O [IMD 0354] ?
-- reply 0.74

-- ask Param item: CC#CCn1c(N2CCC[C@@H](N)C2)nc2c1c(=O)n(Cc1nc(C)c3ccccc3n1)c(=O)n2C [Linagliptin]
-- reply 1.01

-- ask Item: Cc1c(Cc2ccc3ccccc3n2)c2cc(F)ccc2n1CC(=O)O [OC000459]
-- reply 0.64

-- ask Try this molecule next: C#Cc1cccc(Nc2ncnc3cc4c(cc23)OCCOCCOCCO4)c1 [Icotinib]
-- reply 15.7

-- ask Ok, now CN1CCC[C@@H]1CCO[C@](C)(c1ccccc1)c1ccc(Cl)cc1 [Clemastine Fumarate]
-- reply 0.64

-- ask Subsequent entry: COc1cc2nc(N3CCN(C(=O)C4COc5ccccc5O4)CC3)nc(N)c2cc1OC (centres unmarked) [Doxazosin Mesylate]
-- reply 0.67

-- ask Same read-out for CC12CC3CC(C)(C1)CC(N)(C3)C2 [Memantine HCl] ?
-- reply 0.55

-- ask Proceed to COc1ccc(-c2nc3ccc(C4=NNC(=O)CC4C)cc3[nH]2)cc1 (centres unmarked) [Pimobendan]
-- reply 1.11
